Measured values drawn from patent US11344510B2 for this set.

# test-method-notes: HLM stability (High Activity)
# Format: in vitro ADME
# experimental-parameters: both sexes, human, liver microsomes, pH 7.4, Condition 2 (High Activity), 1.0 mg protein/mL
# Protocol: HLM Stability (High Activity). Pooled HLM from adult male and female donors (XenoTech H0630) were used. Microsomal incubations were carried out in 96-well plates in 5 aliquots of 40 μL, each (one for each time point). […] Five time points over 60 minutes were analyzed. […] Supernatants were analyzed for parent compound remaining using a fit-for-purpose liquid chromatography-tandem mass spectrometry (LC-MS/MS) method, with authentic samples of each analyte used for identity confirmation. […]
Counter-ions that a name gives are not always drawn.
Can you tell me half-life at 1 μM for the items I'm about to list?
Just the number plus its unit, please.

molecule: CN[C@@]1(c2ccccc2)CCCCC1=O [Compound 14R]
half-life at 1 μM: 586 min
//
molecule: N[C@@]1(c2ccccc2)CCCCC1=O [Compound 11R, (R)-2-amino-2-phenyl-cyclohexan-1-one]
half-life at 1 μM: 199 min
//
molecule: O=C1CCCC[C@]1(c1ccccc1)N1CCCCC1 [Compound 26R]
half-life at 1 μM: 63.2 min
//
molecule: CNC1(c2ccccc2)CCCCC1=O (racemic) [Compound 14rac, hydrochloride]
half-life at 1 μM: 367 min
//
molecule: O=C1CCCC[C@@]1(NCCO)c1ccccc1 [Compound 30R]
half-life at 1 μM: 23 min

# return half-life at 1 μM for each item in the list
1. [2H]C([2H])([2H])N[C@@]1(c2ccccc2)CCCCC1=O [Compound 88R]
2. CNC1(c2cccc(OC)c2)CCCCC1=O (racemic)
3. O=C1CCCC[C@]1(NCCF)c1ccccc1 [Compound 86S]
4. CN[C@]1(c2ccccc2)CCCCC1=O [Compound 14S]
5. O=C1CCCC[C@]1(c1ccccc1)N1CCC1 [Compound 84R]
6. O=C1CCCC[C@]1(NCCO)c1ccccc1 [Compound 30S]
7. CN[C@@]1(c2cccc(F)c2)CCCCC1=O [Compound 19R]

Response:
["175 min", "150 min", "61.9 min", "371 min", "165 min", "11.4 min", "136 min"]

* * *

# test-method-notes: Oral bioavailability in mice, Method A
# Assay type: in vivo
# experimental-parameters: male, mouse, plasma, CD-1 mice, 10 mg/kg iv, read-out: AUC0-inf (iv) (converted)
Where a name gives a salt, the structure may show the parent alone.
Field: AUC(0-inf). Provide a value for each of the molecules that follow.
Numbers only, in ng·h/mL.

For orientation, consider the following solved cases.
molecule: CNC1(c2ccccc2F)CCCCC1=O (racemic)
property-label: AUC(0-inf)
units-symbol: ng·h/mL
readout-number: 1300

molecule: CNC1(c2ccccc2OC)CCCCC1=O (racemic)
property-label: AUC(0-inf)
units-symbol: ng·h/mL
readout-number: 1650

molecule: CNC1(c2ccccc2)CCCCC1=O (racemic) [Compound 14rac, hydrochloride]
property-label: AUC(0-inf)
units-symbol: ng·h/mL
readout-number: 1930

molecule: CCNC1(c2cccc(OC)c2)CCCCC1=O (racemic)
property-label: AUC(0-inf)
units-symbol: ng·h/mL
readout-number: 1100

molecule: CN[C@@]1(c2ccccc2)CCCCC1=O [Compound 14R]
property-label: AUC(0-inf)
units-symbol: ng·h/mL
readout-number: 3520

Turning now to a further record.
Prompt: Return reported AUC(0-inf); argument: CN[C@]1(c2ccccc2)CCCCC1=O [Compound 14S]
Response: 2180
